Entry source: patent US20200181262A1

Each entry below lists one item and its recorded fold decrease in IC50 (relative to humanized parent scFV) value.
- Target Or System: T1, recombinant human FcRn (Sino Biological Inc. Cat. No. CT009-H08H) (human, UniProt P55899 24-290; P61769 21-119)
- T1 construct: Bought protein; also called hFcRn (SINO); immobilized FcRn
- T1 sequence (P55899 24-290 limits assumed, chain 1 of 2): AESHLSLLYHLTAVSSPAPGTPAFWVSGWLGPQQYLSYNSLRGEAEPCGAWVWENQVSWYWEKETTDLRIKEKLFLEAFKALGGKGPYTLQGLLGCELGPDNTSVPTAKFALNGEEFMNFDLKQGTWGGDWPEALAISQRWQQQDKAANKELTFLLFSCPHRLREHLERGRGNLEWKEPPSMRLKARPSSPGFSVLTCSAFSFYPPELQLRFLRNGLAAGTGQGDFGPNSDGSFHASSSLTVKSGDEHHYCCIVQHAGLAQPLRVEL
- T1 sequence (P61769 21-119 limits assumed, chain 2 of 2): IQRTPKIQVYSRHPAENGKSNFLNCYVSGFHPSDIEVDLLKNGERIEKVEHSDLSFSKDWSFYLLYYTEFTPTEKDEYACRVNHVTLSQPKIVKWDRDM
- Experimental Protocol: scFv competition ELISA vs biotinylated parent murine antibody, captured FcRn, pH 7.4
Only the number, expressed in fold, is required.

Binder: E7 VH1 scFv with humanized parental Vκ1 (scFv) scFv: QVQLVQSGAEPKKPGASVKLSCKASGYTFTSYGISWVKQATGQGLEWIGEIYPRSGNTYYNEKFKGRATLTADKSTSTAYMELRSLRSEDSAVYFCARSTTVSPPHLWGTGTTVTVSSGGGGSGGGGSGGGGSDIQMTQSPSYLSASVGDRVTITCKASDHINNWLAWYQQKPGQAPRLLISGATSLETGVPSRFSGSGTGKDYTLTISSLQTEDFATYYCQQYWSTPYTFGGGTKVEIK
Quantitative Readout: 37.4

// switching to the query binder
Entry under review: E4 VH1 scFv with humanized parental Vκ1 (scFv) scFv: QVQLVQSGAELKKPGASVKLSCKASGYTFTSYGISWVKQATGQGLEWIGEIYPRSGNTYYNEKFKGRATLTADKSTSTAYMELRSLRSEDSAVYFCARSTTVHPDHNWGTGTTVTVSSGGGGSGGGGSGGGGSDIQMTQSPSYLSASVGDRVTITCKASDHINNWLAWYQQKPGQAPRLLISGATSLETGVPSRFSGSGTGKDYTLTISSLQTEDFATYYCQQYWSTPYTFGGGTKVEIK . Reported fold decrease in IC50 (relative to humanized parent scFV)?
16.8
